Molecular target: T1, matrix metalloprotease 2 (MMP2) (UniProt P08253 110-660, limits assumed)
T1 sequence (looked up): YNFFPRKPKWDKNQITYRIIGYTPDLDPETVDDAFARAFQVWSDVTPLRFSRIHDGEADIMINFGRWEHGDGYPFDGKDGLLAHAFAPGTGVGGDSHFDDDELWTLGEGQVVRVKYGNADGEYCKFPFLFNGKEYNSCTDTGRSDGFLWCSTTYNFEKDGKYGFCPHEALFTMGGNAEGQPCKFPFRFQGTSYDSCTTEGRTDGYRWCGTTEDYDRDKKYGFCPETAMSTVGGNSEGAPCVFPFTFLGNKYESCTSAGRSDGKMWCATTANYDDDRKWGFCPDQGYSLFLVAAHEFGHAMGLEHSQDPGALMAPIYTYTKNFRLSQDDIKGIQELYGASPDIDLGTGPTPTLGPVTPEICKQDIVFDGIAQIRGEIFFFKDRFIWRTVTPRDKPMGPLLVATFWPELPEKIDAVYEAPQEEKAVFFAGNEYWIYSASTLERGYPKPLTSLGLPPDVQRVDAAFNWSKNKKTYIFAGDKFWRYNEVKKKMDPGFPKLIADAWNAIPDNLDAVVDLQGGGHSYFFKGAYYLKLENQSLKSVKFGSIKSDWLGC
Test: cell-based or functional assay
Starred links: 1 amine or outer side, 2 acyl side, 3 side chain; linkers in the order of their positions; H or OH if unused. Non-standard residues stand in square brackets, D forms with d. Primed or numbered codes have the meaning given here. No end group written: not given here. Asn(OH)″ = N^γ-hydroxy-L-asparagine (L-aspartic acid β-hydroxamate), O=C(C[C@H](N[*:1])C(=O)[*:2])NO; Asn(OH) = N-gamma-hydroxy-L-asparagine, O=C(C[C@H](N[*:1])C(=O)[*:2])NO[*:3]
Quick list: IC50 per entry.
Lab book: enter the figure in µM, no units written.

Please review the entries below; each comes with its answer.
{"binder": "ISYGNDALMP-NH2 (Linear 10-mer; also called peptide 8; linear APP-IP 8) [β-amyloid precursor protein-derived inhibitory peptide (APP-IP) 8, ISYGNDALMP]", "IC50 [µM]": 0.092}
{"binder": "cyclo(ATRSGISYGQ[Asn(OH)″]ALMPSGQYM) (SMILES CC[C@H](C)[C@@H]1NC(=O)CNC(=O)[C@H](CO)NC(=O)[C@H](CCCNC(=N)N)NC(=O)[C@H]([C@@H](C)O)NC(=O)[C@H](C)NC(=O)[C@H](CCSC)NC(=O)[C@H](Cc2ccc(O)cc2)NC(=O)[C@H](CCC(N)=O)NC(=O)CNC(=O)[C@H](CO)NC(=O)[C@@H]2CCCN2C(=O)[C@H](CCSC)NC(=O)[C@H](CC(C)C)NC(=O)[C@H](C)NC(=O)[C@H](CC(=O)NO)NC(=O)[C@H](CCC(N)=O)NC(=O)CNC(=O)[C@H](Cc2ccc(O)cc2)NC(=O)[C@H](CO)NC1=O, also called peptide 15) [cyclo[…(OH)ALMPSGQYM]]", "IC50 [µM]": 0.354}
{"binder": "cyclo(SGISYGQ[Asn(OH)″]ALMPSG) (SMILES CC[C@H](C)[C@@H]1NC(=O)CNC(=O)[C@H](CO)NC(=O)CNC(=O)[C@H](CO)NC(=O)[C@@H]2CCCN2C(=O)[C@H](CCSC)NC(=O)[C@H](CC(C)C)NC(=O)[C@H](C)NC(=O)[C@H](CC(=O)NO)NC(=O)[C@H](CCC(N)=O)NC(=O)CNC(=O)[C@H](Cc2ccc(O)cc2)NC(=O)[C@H](CO)NC1=O, also called peptide 12) [cyclo[SGISYGQN(OH)ALMPSG]]", "IC50 [µM]": 10.7}

Please examine the following record next.
Answer with the recorded IC50 for the binder listed here: cyclo(GSGISYGQ[Asn(OH)]ALMPSGA) (SMILES CC[C@H](C)[C@@H]1NC(=O)CNC(=O)[C@H](CO)NC(=O)CNC(=O)[C@H](C)NC(=O)CNC(=O)[C@H](CO)NC(=O)[C@@H]2CCCN2C(=O)[C@H](CCSC)NC(=O)[C@H](CC(C)C)NC(=O)[C@H](C)NC(=O)[C@H](CC(=O)NO)NC(=O)[C@H](CCC(N)=O)NC(=O)CNC(=O)[C@H](Cc2ccc(O)cc2)NC(=O)[C@H](CO)NC1=O, also called peptide 13) [cyclo[…(OH)ALMPSGA]]
18.4
